System: M14
procedureText: NCI tumour cell line growth inhibition, 48 h
Active and inactive are the calls of the source. Cut-off read from the data, not from the text of the source: active = GI50 up to about 1.1 µM and inactive = higher.
Respond only with the outcome that fits, drawn from true (1) = active, false (0) = inactive

Look over these answered cases.
Hello, I am checking results. What call was entered for O=[N+]([O-])C1=Cc2cc(Cl)ccc2OC1c1cccc2ccccc12 (stereo not drawn) ?
false (0)

Assay result, entry Cc1nn(C(=O)c2ccccc2O)c2c1C(c1ccc(O)cc1)SC(=N)N2 (stereo not drawn) — outcome?
false (0)

Which outcome was assigned to COC(=O)CC(NC(=O)OCc1ccccc1)C(C(=O)OCc1ccccc1)C1(C)OCCO1 (stereo not drawn) in this test?
false (0)

Kindly provide the recorded test outcome for the following molecule: O=C(/C=C/c1ccc(-c2ccccc2[N+](=O)[O-])o1)NCc1ccc(C(=O)NCCc2ccccc2)cc1
false (0)

Can you look up the reported call for Nc1nc(N)c2cc(CNc3ccc(C(=O)NC(CC(=O)O)C(=O)O)c(Cl)c3)ccc2n1 (stereo not drawn) for me?
true (1)

Call for entry [O-][S+]1Nc2c(Cl)cc(Cl)c(Cl)c2S1 (stereo not drawn) :
false (0)

Others:
Hi team, can someone confirm the assay call for O=[N+]([O-])c1ccc(CSc2nncc3[nH]cnc23)cc1 ?
false (0)

Tell me the recorded outcome of this test for COC1C(OC(N)=O)C(O)C(Oc2ccc3c(O)c(NC(=O)c4ccc(O)c(CC=C(C)C)c4)c(=O)oc3c2C)OC1(C)C (stereo not drawn) .
false (0)

Outcome? Cc1cc2nc(N3C(=O)/C(=C/c4ccc(Cl)cc4)N=C3c3ccccc3)sc2cc1C
false (0)

Could you check what this test reported for Cc1c(C(=O)CC(=O)C(=O)Nc2c(C(C)C)cccc2C(C)C)[n+]([O-])c2ccccc2[n+]1[O-] ?
false (0)

Please share the test call associated with CCCCCC(O)(CCCCC)CCCCCCCCC1=C(O)C(=O)c2ccc(=O)[nH]c2C1=O .
false (0)

Short answer needed: outcome of this test for O=C1CSC(c2ccccc2O)N1c1ccc(-c2ccc(-n3c(-c4ccccc4)nc4ccccc4c3=O)cc2)cc1 (stereo not drawn) ?
false (0)

// param item: Cc1cc(Cl)ccc1NC(=O)/C(=N\NC(C)(C)C)C(C#N)c1nc(-c2ccc([N+](=O)[O-])cc2)cs1 (stereo not drawn) ; yields the recorded call
false (0)

Recorded call for COc1cc(C(O)C(=O)c2cnc3cc([N+](=O)[O-])ccc3n2)ccc1O (stereo not drawn) ?
false (0)

Give the logged outcome of this assay for the following molecule: O=C(O)CCC1c2[nH]c3ccccc3c2CCN1Cc1ccccc1 (stereo not drawn)
false (0)

* * *

System: SF-539
procedureText: NCI tumour cell line growth inhibition, 48 h
Calls of active or inactive are those of the source. Cut-off read from the data, not from the text of the source: active = GI50 up to about 1.1 µM and inactive = higher.
Classes to choose from: active, inactive

Assay outcome for Cn1c(-c2ccccc2)c2cc3nc4ccccc4nc3cc2c1-c1ccccc1 : what was it?
inactive

***
Record request — test call for C/C(=C1/N=C(c2cc([N+](=O)[O-])ccc2Cl)N(c2ccc(Br)cc2)C1=O)c1ccc(N(CCC#N)CCC#N)cc1C
inactive

Status in this test for CN(CCNC(=O)c1c[nH]c2c1ccc1ccccc12)CCNC(=O)c1c[nH]c2c1ccc1ccccc12 ?
inactive

How was COc1cc(/C=C\c2ccc(Cl)cc2)cc(OC)c1OC classified in this test?
active

Dear all, I need the recorded test outcome for OCSc1nn(CO)c(=S)s1 , thank you.
inactive

Entry COC(=O)C1(Cc2ccc(C)cc2)Cc2c(C)cccc2C1=O (stereo not drawn) : call = ?
inactive
